These data points were gathered from patent US20170050966A1.

protocol: Solubility in Normal Ringer Solution
Assay type: physicochemical
protocol-conditions: aqueous buffer, kinetic from dmso stock, pH 7.4, room temperature
test-readout: solubility at 40 min

input: Return reported solubility at 40 min. Input compound: C[C@@H](C(=O)Nc1ccnc(-c2cnc(N3CCC[C@H]3C(F)(F)F)nc2)n1)n1cnc2[nH]c(=O)n(C)c(=O)c21
output: 4.37 µM

input: Return reported solubility at 40 min. Input compound: C[C@H]1CCCN1c1ncc(-c2nccc(NC(=O)Cn3cnc4c3c(=O)n(C)c(=O)n4C)n2)cn1
output: > 18.2 µM

input: Return reported solubility at 40 min. Input compound: C[C@@H](C(=O)Nc1ccnc(-c2cnc(N3CCC[C@H]3C(F)(F)F)nc2)n1)n1cnc2c1c(=O)n(C)c(=O)n2C
output: ~32.4 µM

input: Return reported solubility at 40 min. Input compound: C[C@@H](C(=O)Nc1ccnc(-c2cnc(N3CC4C(C3)C4(F)F)nc2)n1)n1cnc2c1c(=O)n(C)c(=O)n2C (stereo partly drawn)
output: > 15.1 µM

input: Return reported solubility at 40 min. Input compound: C[C@@H](C(=O)Nc1ccnc(-c2cnc(N3CC(C(F)(F)F)C3)nc2)n1)n1cnc2c1c(=O)n(C)c(=O)n2C
output: > 77.6 µM

input: Return reported solubility at 40 min. Input compound: C[C@@H](C(=O)Nc1ccnc(-c2cnc(N3CC4CC4C3)nc2)n1)n1cnc2c1c(=O)n(C)c(=O)n2C (stereo partly drawn)
output: 16.3 µM

---

target-or-system: human TRPA1 (hTRPA1) (Homo sapiens, UniProt O75762)
Construct: expressed in transfected cells
Sequence (O75762 whole entry): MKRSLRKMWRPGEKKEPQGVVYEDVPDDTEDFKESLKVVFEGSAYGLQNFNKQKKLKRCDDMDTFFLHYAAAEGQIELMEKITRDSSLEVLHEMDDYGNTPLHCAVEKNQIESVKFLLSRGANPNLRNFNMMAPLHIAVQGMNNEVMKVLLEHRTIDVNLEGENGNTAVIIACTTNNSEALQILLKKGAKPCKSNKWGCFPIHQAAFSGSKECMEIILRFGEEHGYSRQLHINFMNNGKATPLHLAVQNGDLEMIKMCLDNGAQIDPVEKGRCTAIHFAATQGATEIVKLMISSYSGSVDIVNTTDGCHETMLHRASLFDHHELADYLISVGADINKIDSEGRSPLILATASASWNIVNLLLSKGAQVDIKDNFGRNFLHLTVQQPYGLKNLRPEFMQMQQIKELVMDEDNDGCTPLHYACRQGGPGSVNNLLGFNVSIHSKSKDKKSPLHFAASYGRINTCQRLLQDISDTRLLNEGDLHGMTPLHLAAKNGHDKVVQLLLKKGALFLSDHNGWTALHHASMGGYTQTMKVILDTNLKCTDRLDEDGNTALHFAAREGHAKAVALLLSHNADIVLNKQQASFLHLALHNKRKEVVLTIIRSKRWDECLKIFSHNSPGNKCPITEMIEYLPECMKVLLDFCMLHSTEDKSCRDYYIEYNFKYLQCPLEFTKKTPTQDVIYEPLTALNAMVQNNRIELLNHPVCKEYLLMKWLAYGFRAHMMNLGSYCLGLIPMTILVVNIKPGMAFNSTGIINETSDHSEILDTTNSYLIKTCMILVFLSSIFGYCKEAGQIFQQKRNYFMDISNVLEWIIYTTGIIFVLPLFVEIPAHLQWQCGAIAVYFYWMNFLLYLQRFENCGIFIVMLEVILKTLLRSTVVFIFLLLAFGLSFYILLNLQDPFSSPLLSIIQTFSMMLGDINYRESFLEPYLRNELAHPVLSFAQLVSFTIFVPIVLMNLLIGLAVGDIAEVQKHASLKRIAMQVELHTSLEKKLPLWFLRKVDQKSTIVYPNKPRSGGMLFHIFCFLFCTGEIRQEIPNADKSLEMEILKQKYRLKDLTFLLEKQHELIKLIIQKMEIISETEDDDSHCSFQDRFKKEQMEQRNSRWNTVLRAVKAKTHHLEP
protocol: hTRPA1 IC50 in presence of albumin and plasma, whole-cell patch clamp
Type: cell-based
protocol-conditions: 25% (v/v) human plasma, 20 μM AITC; read-out: IC50 + hPlasma
test-readout: pIC50
By convention, pIC50 is the negative base-10 log of a molar concentration.

input: Return reported pIC50. Input compound: C[C@@H](C(=O)Nc1ccnc(-c2cnc(N3CCC[C@H]3C(F)(F)F)nc2)n1)n1cnc2c1c(=O)n(C)c(=O)n2C
output: 7.02

---

target-or-system: CYP2D6 (Homo sapiens, UniProt P10635)
Sequence (P10635 whole entry): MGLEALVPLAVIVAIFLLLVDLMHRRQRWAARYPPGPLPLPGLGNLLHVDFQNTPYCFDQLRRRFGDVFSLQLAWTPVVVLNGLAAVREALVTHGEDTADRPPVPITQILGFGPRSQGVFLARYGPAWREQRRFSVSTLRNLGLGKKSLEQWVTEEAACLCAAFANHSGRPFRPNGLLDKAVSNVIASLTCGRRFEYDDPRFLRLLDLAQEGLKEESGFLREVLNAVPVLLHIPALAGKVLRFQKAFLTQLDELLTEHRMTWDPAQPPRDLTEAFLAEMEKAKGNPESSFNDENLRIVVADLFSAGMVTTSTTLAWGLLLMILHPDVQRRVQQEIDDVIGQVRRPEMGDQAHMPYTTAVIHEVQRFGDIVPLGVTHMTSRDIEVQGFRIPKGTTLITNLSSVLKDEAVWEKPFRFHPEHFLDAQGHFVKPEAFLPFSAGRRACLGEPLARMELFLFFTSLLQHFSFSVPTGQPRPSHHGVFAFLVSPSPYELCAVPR
protocol: in vitro
protocol-conditions: probe Dextromethorphan
test-readout: inhibition at 10 µM (%)
Please reply with the bare figure in % and do not write the unit itself.

input: Return reported inhibition at 10 µM. Input compound: C[C@@H](C(=O)Nc1ccnc(-c2cnc(N3CCC[C@H]3C(F)(F)F)nc2)n1)n1cnc2c1c(=O)n(C)c(=O)n2C
output: 9.5

---

target-or-system: rTRPA1 (Rattus norvegicus)
Sequence (Q6RI86 whole entry): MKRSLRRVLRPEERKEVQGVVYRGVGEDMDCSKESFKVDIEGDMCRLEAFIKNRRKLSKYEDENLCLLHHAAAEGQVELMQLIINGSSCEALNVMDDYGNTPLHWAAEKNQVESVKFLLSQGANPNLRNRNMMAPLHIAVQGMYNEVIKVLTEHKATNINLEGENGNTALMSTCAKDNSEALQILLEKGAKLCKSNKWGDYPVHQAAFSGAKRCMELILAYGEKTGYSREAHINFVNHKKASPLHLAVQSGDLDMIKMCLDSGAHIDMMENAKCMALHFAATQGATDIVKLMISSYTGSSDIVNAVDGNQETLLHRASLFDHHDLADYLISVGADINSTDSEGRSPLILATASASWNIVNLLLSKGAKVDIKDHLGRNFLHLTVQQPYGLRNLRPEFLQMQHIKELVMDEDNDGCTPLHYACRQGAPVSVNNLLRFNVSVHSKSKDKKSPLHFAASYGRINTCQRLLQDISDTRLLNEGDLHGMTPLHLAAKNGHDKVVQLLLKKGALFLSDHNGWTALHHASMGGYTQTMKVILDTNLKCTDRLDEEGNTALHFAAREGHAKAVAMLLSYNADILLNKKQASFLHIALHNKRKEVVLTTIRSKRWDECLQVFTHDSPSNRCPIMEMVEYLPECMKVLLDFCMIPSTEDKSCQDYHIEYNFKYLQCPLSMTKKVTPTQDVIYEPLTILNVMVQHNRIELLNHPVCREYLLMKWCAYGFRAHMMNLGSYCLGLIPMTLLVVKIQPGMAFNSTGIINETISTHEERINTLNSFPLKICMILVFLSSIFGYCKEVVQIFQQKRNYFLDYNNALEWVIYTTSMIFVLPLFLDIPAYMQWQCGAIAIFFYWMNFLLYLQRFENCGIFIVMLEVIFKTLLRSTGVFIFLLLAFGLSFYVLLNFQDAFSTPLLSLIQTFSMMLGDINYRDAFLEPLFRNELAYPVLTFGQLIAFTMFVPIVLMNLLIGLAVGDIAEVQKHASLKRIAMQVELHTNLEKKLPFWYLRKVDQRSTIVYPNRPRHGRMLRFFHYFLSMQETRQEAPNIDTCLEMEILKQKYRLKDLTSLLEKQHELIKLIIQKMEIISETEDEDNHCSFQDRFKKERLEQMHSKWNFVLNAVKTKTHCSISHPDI
protocol: TRPA1 IC50, whole-cell patch clamp
protocol-conditions: rTRPA1, 10 μM AITC; read-out: IC50 Inward current
test-readout: pIC50
By convention, pIC50 is the negative base-10 log of a molar concentration.

input: Return reported pIC50. Input compound: C[C@@H](C(=O)Nc1ccnc(-c2cnc(N3CCC[C@H]3C(F)(F)F)nc2)n1)n1cnc2c1c(=O)n(C)c(=O)n2C
output: 7.64

---

protocol: PK comparison of capsule and suspension formulations
protocol-conditions: monkey, in vivo, po, 250 mg, Suspension (fasted), monkeys
test-readout: bioavailability

input: Return reported bioavailability. Input compound: C[C@@H](C(=O)Nc1ccnc(-c2cnc(N3CCC[C@H]3C(F)(F)F)nc2)n1)n1cnc2c1c(=O)n(C)c(=O)n2C [Compound 2]
output: 7.8%
